ASSAY_INFO: Stability and protonation constants and pMn of the Mn(II) complexes (pH-potentiometry and/or 1H relaxometry)
Format: physicochemical
CONDITION_SUMMARY: protonation constant of the Mn(II) complex; I = 0.15 M NaCl, 25 °C
Protocol: The concentration of the ligand solutions was determined by pH-potentiometric titration in the presence and absence of an excess (5–10 fold) of MnCl2. […] The equilibrium constants characterizing the deprotonation that occurs at basic pH were determined from the data obtained via direct pH-potentiometric titrations performed on the pre-formed complexes. […]
Catalogue of log KMLH values

COMPOUND: O=P(O)(O)CN1CCNCCN(CP(=O)(O)O)CCN(CP(=O)(O)O)CC1 [DO3P]
log KMLH: 8.06 (2)

The recorded log KMLH for entry O=C(O)CNC(=O)CN1CCN(CC(=O)NCC(=O)O)Cc2cccc(n2)CN(CC(=O)NCC(=O)O)CC1 [PC3AM^Gly] equals 3.98 (1)

Please fill in: log KMLH reported for O=C(O)CN1CCN(CC(=O)O)Cc2cccc(n2)CN(CC(=O)O)CC1 [PCTA] = 1.96(1)

// O=C(O)CN1CCOCCN(CC(=O)O)CCN(CC(=O)O)CC1 [ODO3A] : log KMLH value = 2.77 (5)

log KMLH recorded for this compound, O=P(O)(O)CN1CCN(CP(=O)(O)O)CCN(CP(=O)(O)O)CCN(CP(=O)(O)O)CC1 [DOTP] , is 8.09 (1)

Reported log KMLH for O=C(O)CN1CCNCCN(CC(=O)O)CCN(CC(=O)O)CC1 [DO3A] was 4.26 (2)
